# Test system: HBV-infected NTCP-HepG2 cells, secreted HBsAg
# assay.procedure: microbe, parasite or virus in culture
# Format: cell-based, hepatitis B virus (genotype D, AD38-derived)
# settings: Hepatitis B virus, 120 h, secreted HBsAg in supernatant after 5 days; geometric mean of minimum four determinations; read-out: NTCP HBsAg EC50
Consider the cut-off 10 nM. If the recorded EC50 is strictly smaller, the label is Satisfied; if not, the label is Not satisfied.

INSERT INTO results (molecule, tested_system, assigned_label) VALUES
  ('CC1(C)CC[C@@H]2c3cc(C#CC(C)(C)S(C)(=O)=O)c(OC(F)(F)F)cc3-c3cc(=O)c(C(=O)O)cn3N21', 'HBV-infected NTCP-HepG2 cells, secreted HBsAg', 'Not satisfied'),
  ('COCCCOc1cc2c(cc1Cl)-c1cc(=O)c(C(=O)O)cn1[C@H]1[C@H]2CCC1(C)C (single isomer, unassigned)', 'HBV-infected NTCP-HepG2 cells, secreted HBsAg', 'Not satisfied'),
  ('CCOCCCOc1cc2c(cc1OC)-c1cc(=O)c(C(=O)O)cn1N1[C@@H]2CCC1(C)C', 'HBV-infected NTCP-HepG2 cells, secreted HBsAg', 'Satisfied'),
  ('COCCCOc1cc2c(cc1OC)-c1cc(=O)c(C(=O)O)cn1N1[C@H]2CCC1(C)C', 'HBV-infected NTCP-HepG2 cells, secreted HBsAg', 'Not satisfied'),
  ('CC1(C)CC[C@@H]2c3cc(OCC4COC4)c(C4CC4)cc3-c3cc(=O)c(C(=O)O)cn3N21', 'HBV-infected NTCP-HepG2 cells, secreted HBsAg', 'Satisfied'),
  ('COc1cc2c(cc1OCC1CC(=O)C1)[C@H]1CCC(C)(C)N1n1cc(C(=O)O)c(=O)cc1-2', 'HBV-infected NTCP-HepG2 cells, secreted HBsAg', 'Satisfied'),
  ('COc1cc2c(cc1C#Cc1cnc3cccnn13)[C@H]1CCC(C)(C)N1n1cc(C(=O)O)c(=O)cc1-2', 'HBV-infected NTCP-HepG2 cells, secreted HBsAg', 'Satisfied');

* * *

# assay.procedure: MT-4 cytotoxicity assay
# Assay type: cell-based, human
# settings: human, five days, Cell Titer Glo luminescence; read-out: MT-4 CC50
# maps each entry to its CC50 at 5 days
measured.endpoint: CC50 at 5 days

INSERT INTO assay_data (molecule, test_value) VALUES
  ('COCCCOc1cc2c(cc1Cl)-c1cc(=O)c(C(=O)O)cn1N1CCC(C)(C)[C@@H]21 (single isomer, unassigned) [Example 48]', '2.2 µM'),
  ('COc1cc2c(cc1C#Cc1cnc3cccnn13)[C@H]1CCC(C)(C)N1n1cc(C(=O)O)c(=O)cc1-2 [Example 68]', '> 10 µM'),
  ('COCCCOc1cc2c(cc1OC)-c1cc(=O)c(C(=O)O)cn1N1[C@H]2CCC1(C)C [Example 15]', '> 10 µM'),
  ('COCCOCc1cc2c(cc1OC(F)F)-c1cc(=O)c(C(=O)O)cn1N1[C@@H]2CCC1(C)C [Compound 108]', '> 10 µM'),
  ('COCCCOc1cc2c(cc1Cl)-c1cc(=O)c(C(=O)O)cn1N1[C@H](C)CC[C@H]21 (single isomer, unassigned) [Example 7]', '> 10 µM'),
  ('COCCCOc1cc2c(cc1Cl)-c1cc(=O)c(C(=O)O)cn1N1[C@@H]2CC[C@@H]1C (single isomer, unassigned) [Example 10]', '> 10 µM'),
  ('COCCCOc1cc2c(cc1Cl)-c1cc(=O)c(C(=O)O)cn1N1CCCC(C)(C)C21 (stereo not shown) [Example 38]', '9.9 µM');

* * *

# assay.procedure: MT-4 cytotoxicity assay
# Type: cell-based, human
# settings: human, MT-4 CC50
measured.endpoint: CC50 at 5 days

INSERT INTO assay_data (smiles_entry, measured_endpoint, test_value) VALUES
  ('COCCCOc1cc2c(cc1COC)-c1cc(=O)c(C(=O)O)cn1N1[C@@H]2COCC12CCC2', 'CC50 at 5 days', '> 10 µM'),
  ('COCc1cc2c(cc1OCC13CC(C#N)(C1)C3)[C@H]1CCC3(CC3)N1n1cc(C(=O)O)c(=O)cc1-2', 'CC50 at 5 days', '7.8 µM'),
  ('COC(C)(C)C#Cc1cc2c(cc1Cl)-c1cc(=O)c(C(=O)O)cn1N1[C@@H]2CCC12CC2', 'CC50 at 5 days', '> 10 µM'),
  ('O=C(O)c1cn2c(cc1=O)-c1cc(Cl)c(-c3cnn(C4COC4)c3)cc1[C@H]1CCC3(CC3)N12', 'CC50 at 5 days', '> 10 µM');

* * *

# maps each entry to its EC50
# Tested on: HBV-infected NTCP-HepG2 cells, secreted HBsAg
# assay.procedure: microbe, parasite or virus in culture
# Type: cell-based, hepatitis B virus (genotype D, AD38-derived)
# settings: Hepatitis B virus, 120 h, secreted HBsAg in supernatant after 5 days; geometric mean of minimum four determinations; read-out: NTCP HBsAg EC50
measured.endpoint: EC50 (nM)

INSERT INTO assay_data (molecule, measured_endpoint, value_units, modifier, test_value) VALUES
  ('COCCCOc1cc2c(cc1Cl)-c1cc(=O)c(C(=O)O)cn1N1[C@H]2CCC12CC2 (single isomer, unassigned)', 'EC50', 'nM', '>', 1000),
  ('CCOc1cc2c(cc1OCCCOC)[C@H]1CCC(C)(C)N1n1cc(C(=O)O)c(=O)cc1-2', 'EC50', 'nM', '=', 7.5),
  ('CC1(C)CC[C@@H]2c3cc(OCCn4nc5ccccn5c4=O)c(OC(F)(F)F)cc3-c3cc(=O)c(C(=O)O)cn3N21', 'EC50', 'nM', '=', 3),
  ('COCCCOc1cc2c(cc1Cl)-c1cc(=O)c(C(=O)O)cn1N1C2CCC1(C)C (centres unmarked)', 'EC50', 'nM', '=', 3.9),
  ('COCCCOc1cc2c(cc1OC)-c1cc(=O)c(C(=O)O)cn1N1[C@H]2CCCC1(C)C (single isomer, unassigned)', 'EC50', 'nM', '=', 9.1),
  ('COC(C)(C)C#Cc1cc2c(cc1OC(F)(F)F)-c1cc(=O)c(C(=O)O)cn1N1[C@@H]2CCC1(C)C', 'EC50', 'nM', '=', 5),
  ('COCc1cc2c(cc1OCCCO)[C@H]1CCC(C)(C)N1n1cc(C(=O)O)c(=O)cc1-2', 'EC50', 'nM', '=', 32.2),
  ('COCCCOc1cc2c(cc1OCCCOC)[C@H]1CCC(C)(C)N1n1cc(C(=O)O)c(=O)cc1-2', 'EC50', 'nM', '=', 53),
  ('COCCCOc1cc2c(cc1Cl)-c1cc(=O)c(C(=O)O)cn1N1CCCC21 (centres unmarked)', 'EC50', 'nM', '=', 90),
  ('COCCCOc1cc2c(cc1Cl)-c1cc(=O)c(C(=O)O)cn1N1CC(C)(C)C[C@@H]21 (single isomer, unassigned)', 'EC50', 'nM', '=', 10),
  ('COCc1cc2c(cc1OCC13CC(C#N)(C1)C3)[C@H]1CCC3(CC3)N1n1cc(C(=O)O)c(=O)cc1-2', 'EC50', 'nM', '=', 5.9),
  ('COCCCOc1cc2c(cc1Cl)-c1cc(=O)c(C(=O)O)cn1N1[C@H](C)CC[C@H]21 (single isomer, unassigned)', 'EC50', 'nM', '=', 32),
  ('COCCCOc1cc2c(cc1Cl)-c1cc(=O)c(C(=O)O)cn1N1[C@@H]2CCCC1(C)C (single isomer, unassigned)', 'EC50', 'nM', '=', 2.5),
  ('COCCCOc1cc2c(cc1Cl)-c1cc(=O)c(C(=O)O)cn1N1CC(C)(C)C[C@H]21 (single isomer, unassigned)', 'EC50', 'nM', '=', 14);

* * *

# System: HBV-infected NTCP-HepG2 cells, secreted HBsAg
# assay.procedure: microbe, parasite or virus in culture
# Type: cell-based, hepatitis B virus (genotype D, AD38-derived)
# settings: Hepatitis B virus, 120 h, secreted HBsAg in supernatant after 5 days; geometric mean of minimum four determinations; read-out: NTCP HBsAg EC50
# maps each entry to its EC50
measured.endpoint: EC50 (nM)

INSERT INTO measurements (compound, test_value) VALUES
  ('COc1cc2c(cc1OCC1CC(F)(F)C1)[C@H]1CCC(C)(C)N1n1cc(C(=O)O)c(=O)cc1-2', 1),
  ('COCCCOc1cc2c(cc1Cl)-c1cc(=O)c(C(=O)O)cn1N1[C@@H]2COCC1(C)C (single isomer, unassigned)', 2.9),
  ('COCCCOc1cc2c(cc1CO)-c1cc(=O)c(C(=O)O)cn1N1[C@@H]2CCC1(C)C', 22.7),
  ('COCCCOc1cc2c(cc1Cl)-c1cc(=O)c(C(=O)O)cn1N1[C@H]2CCC1(C)C (single isomer, unassigned)', 300),
  ('O=C(O)c1cn2c(cc1=O)-c1cc(Cl)c(-c3cnn(C4COC4)c3)cc1[C@H]1CCC3(CC3)N12', 24.8),
  ('CC1(C)CC[C@@H]2c3cc(OCC45CC(C#N)(C4)C5)c(OC(F)F)cc3-c3cc(=O)c(C(=O)O)cn3N21', 2.7),
  ('COCCCOc1cc2c(cc1Cl)-c1cc(=O)c(C(=O)O)cn1N1[C@@H]2CCC12COC2', 72),
  ('COCCCOc1cc2c(cc1Cl)-c1cc(=O)c(C(=O)O)cn1N1CCC[C@H]21 (single isomer, unassigned)', 110),
  ('COCc1cc2c(cc1OCC13CC(C#N)(C1)C3)[C@H]1CCC(C)(C)N1n1cc(C(=O)O)c(=O)cc1-2', 3.8),
  ('COCCOCc1cc2c(cc1OC(F)F)-c1cc(=O)c(C(=O)O)cn1N1[C@@H]2CCC1(C)C', 16.8),
  ('CC1(C)CC[C@@H]2c3cc(C#Cc4ccc(N)nc4)c(OC(F)F)cc3-c3cc(=O)c(C(=O)O)cn3N21', 0.37),
  ('COCCCOc1cc2c(cc1Cl)-c1cc(=O)c(C(=O)O)cn1[C@@H]1[C@@H]2CCC1(C)C (single isomer, unassigned)', 170),
  ('CC1(COc2cc3c(cc2Cl)-c2cc(=O)c(C(=O)O)cn2N2[C@@H]3CCC2(C)C)COC1', 3.8),
  ('COCCCOc1cc2c(cc1COC)-c1cc(=O)c(C(=O)O)cn1N1[C@@H]2CCC1(C)C', 1.9);
